Please go through the items and note down their % inhibition. complete NM2B.
Target: recombinant human non-muscle myosin 2 NM2B (Homo sapiens)
Sequence (P35580 whole entry): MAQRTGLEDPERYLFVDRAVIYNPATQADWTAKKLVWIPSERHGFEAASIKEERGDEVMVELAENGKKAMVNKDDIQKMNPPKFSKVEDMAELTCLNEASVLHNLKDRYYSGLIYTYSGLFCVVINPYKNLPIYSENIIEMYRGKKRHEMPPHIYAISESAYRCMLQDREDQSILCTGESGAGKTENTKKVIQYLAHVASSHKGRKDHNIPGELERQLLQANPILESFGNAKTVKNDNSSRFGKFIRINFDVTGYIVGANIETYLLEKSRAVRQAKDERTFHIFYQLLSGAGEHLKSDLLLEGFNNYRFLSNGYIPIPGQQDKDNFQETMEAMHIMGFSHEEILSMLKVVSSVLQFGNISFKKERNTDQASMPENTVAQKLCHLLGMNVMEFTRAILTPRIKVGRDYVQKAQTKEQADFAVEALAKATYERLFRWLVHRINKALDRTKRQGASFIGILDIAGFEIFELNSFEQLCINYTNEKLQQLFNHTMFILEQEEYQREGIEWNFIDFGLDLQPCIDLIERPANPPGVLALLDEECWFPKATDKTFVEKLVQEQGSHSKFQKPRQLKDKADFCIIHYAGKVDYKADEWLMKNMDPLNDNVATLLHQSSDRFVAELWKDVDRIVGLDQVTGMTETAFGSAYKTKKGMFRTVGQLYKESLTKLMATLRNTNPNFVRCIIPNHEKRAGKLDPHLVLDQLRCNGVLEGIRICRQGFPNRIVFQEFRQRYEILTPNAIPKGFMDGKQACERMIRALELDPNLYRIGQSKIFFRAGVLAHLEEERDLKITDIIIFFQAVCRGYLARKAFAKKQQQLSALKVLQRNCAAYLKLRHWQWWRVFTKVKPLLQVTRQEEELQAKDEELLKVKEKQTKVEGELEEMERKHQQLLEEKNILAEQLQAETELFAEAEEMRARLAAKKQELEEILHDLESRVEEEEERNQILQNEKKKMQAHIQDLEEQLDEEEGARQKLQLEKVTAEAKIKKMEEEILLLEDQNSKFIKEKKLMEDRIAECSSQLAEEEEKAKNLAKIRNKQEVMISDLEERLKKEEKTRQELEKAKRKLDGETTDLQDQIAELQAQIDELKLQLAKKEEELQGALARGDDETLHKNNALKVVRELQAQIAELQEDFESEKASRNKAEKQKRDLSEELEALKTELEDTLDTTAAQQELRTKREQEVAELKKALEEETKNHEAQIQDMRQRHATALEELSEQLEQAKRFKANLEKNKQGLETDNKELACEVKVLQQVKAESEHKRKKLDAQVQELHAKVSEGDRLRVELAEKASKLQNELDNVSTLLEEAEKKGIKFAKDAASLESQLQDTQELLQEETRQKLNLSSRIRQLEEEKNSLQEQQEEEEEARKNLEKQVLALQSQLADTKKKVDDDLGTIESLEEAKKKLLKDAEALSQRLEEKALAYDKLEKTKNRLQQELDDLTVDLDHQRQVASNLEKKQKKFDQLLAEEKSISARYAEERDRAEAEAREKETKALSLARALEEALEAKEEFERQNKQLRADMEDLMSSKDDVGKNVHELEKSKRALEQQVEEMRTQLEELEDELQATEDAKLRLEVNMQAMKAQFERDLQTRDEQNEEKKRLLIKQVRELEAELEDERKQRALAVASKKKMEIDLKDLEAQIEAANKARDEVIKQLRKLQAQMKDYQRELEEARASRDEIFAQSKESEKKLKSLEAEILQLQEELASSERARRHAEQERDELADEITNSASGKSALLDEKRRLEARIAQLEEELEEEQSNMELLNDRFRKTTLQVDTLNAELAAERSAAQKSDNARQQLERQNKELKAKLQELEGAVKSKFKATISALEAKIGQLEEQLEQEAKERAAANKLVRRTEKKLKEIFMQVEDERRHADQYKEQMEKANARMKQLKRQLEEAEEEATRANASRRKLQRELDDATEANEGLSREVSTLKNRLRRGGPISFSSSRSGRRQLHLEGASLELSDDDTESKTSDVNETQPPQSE
Test: actomyosin steady state ATPase measurement, NM2B
Assay type: biochemical
Conditions: maximum value of inhibition of ATPase activity
One number for each entry, in %.

Reference set (4 entries):
compound	tested_on	recorded_measurement
O=C1c2sccc2N=C2N(c3ccccc3)CCC12O (centres unmarked) [Compound 183]	recombinant human non-muscle myosin 2 NM2B (Homo sapiens)	56
O=C1c2ccsc2N=C2N(c3ccccc3)CCC12O (centres unmarked) [Compound 180]	recombinant human non-muscle myosin 2 NM2B (Homo sapiens)	60
O=C1c2ccncc2N=C2N(c3ccccc3)CCC12O (centres unmarked) [Compound 174]	recombinant human non-muscle myosin 2 NM2B (Homo sapiens)	12
Cc1cc2c(s1)N=C1N(c3ccccc3)CCC1(O)C2=O (centres unmarked) [Compound 198]	recombinant human non-muscle myosin 2 NM2B (Homo sapiens)	100

Note: attention shifts to another entry.
Specify % inhibition. complete NM2B for O=C1c2ccsc2N=C2N(c3ccc(N4CCOCC4)cc3)CCC12O (centres unmarked) [Compound 188] and stop.
19

====

Target: isolated smooth muscle myosin (UniProt P10587)
Assay type: biochemical, chamois
Details: 5 μM (10 μM if racemate); ATPase activity
Classification field: 1 (yes) = % inhibition at 5 μM (or 10 μM if racemate) Smooth at or over 30%; 0 (no) = % inhibition at 5 μM (or 10 μM if racemate) Smooth under 30%.

Below are worked cases with known answers.
molecule	tested_on	group
COc1ccc(N2CC[C@@]3(O)C(=O)c4ccsc4N=C23)cc1 [Compound 211]	isolated smooth muscle myosin (UniProt P10587)	1 (yes)
Cc1ccc(N2CCC3(O)C(=O)c4cc(C)sc4N=C23)cc1 (stereo not drawn) [Compound 235]	isolated smooth muscle myosin (UniProt P10587)	1 (yes)
Cc1cc2c(s1)N=C1N(c3ccc(N4CCOCC4)cc3)CCC1(O)C2=O (stereo not drawn) [Compound 220]	isolated smooth muscle myosin (UniProt P10587)	1 (yes)
COc1ccc(N2CC[C@@]3(O)C(=O)c4ccsc4N=C23)cn1 [Compound 219]	isolated smooth muscle myosin (UniProt P10587)	0 (no)
Cc1cc2c(s1)N=C1N(c3ccc(CO)cc3)CCC1(O)C2=O (stereo not drawn) [Compound 227]	isolated smooth muscle myosin (UniProt P10587)	1 (yes)

Identify whether the reported % inhibition at 5 μM (or 10 μM if racemate) Smooth of the following molecule is 30% or greater: O=C1c2ccsc2N=C2N(c3ccc(CO)cc3)CC[C@@]12O [Compound 216]
0 (no)

Identify whether the reported % inhibition at 5 μM (or 10 μM if racemate) Smooth of the following molecule is 30% or greater: Cc1ccc(N2CCC3(O)C(=O)c4ccncc4N=C23)cc1 (stereo not drawn) [Compound 247]
0 (no)

Identify whether the reported % inhibition at 5 μM (or 10 μM if racemate) Smooth of the following molecule is 30% or greater: Cc1cc2c(s1)N=C1N(c3ccc(N)cc3)CCC1(O)C2=O (stereo not drawn) [Compound 221]
1 (yes)

Identify whether the reported % inhibition at 5 μM (or 10 μM if racemate) Smooth of the following molecule is 30% or greater: O=C1c2cccnc2N=C2N(c3ccccc3)CCC12O (stereo not drawn) [Compound 189]
0 (no)

====

Molecular target: recombinant Dictyostelium miozin (Dictyostelium) (Dictyostelium discoideum, UniProt P08799)
Sequence (P08799 whole entry): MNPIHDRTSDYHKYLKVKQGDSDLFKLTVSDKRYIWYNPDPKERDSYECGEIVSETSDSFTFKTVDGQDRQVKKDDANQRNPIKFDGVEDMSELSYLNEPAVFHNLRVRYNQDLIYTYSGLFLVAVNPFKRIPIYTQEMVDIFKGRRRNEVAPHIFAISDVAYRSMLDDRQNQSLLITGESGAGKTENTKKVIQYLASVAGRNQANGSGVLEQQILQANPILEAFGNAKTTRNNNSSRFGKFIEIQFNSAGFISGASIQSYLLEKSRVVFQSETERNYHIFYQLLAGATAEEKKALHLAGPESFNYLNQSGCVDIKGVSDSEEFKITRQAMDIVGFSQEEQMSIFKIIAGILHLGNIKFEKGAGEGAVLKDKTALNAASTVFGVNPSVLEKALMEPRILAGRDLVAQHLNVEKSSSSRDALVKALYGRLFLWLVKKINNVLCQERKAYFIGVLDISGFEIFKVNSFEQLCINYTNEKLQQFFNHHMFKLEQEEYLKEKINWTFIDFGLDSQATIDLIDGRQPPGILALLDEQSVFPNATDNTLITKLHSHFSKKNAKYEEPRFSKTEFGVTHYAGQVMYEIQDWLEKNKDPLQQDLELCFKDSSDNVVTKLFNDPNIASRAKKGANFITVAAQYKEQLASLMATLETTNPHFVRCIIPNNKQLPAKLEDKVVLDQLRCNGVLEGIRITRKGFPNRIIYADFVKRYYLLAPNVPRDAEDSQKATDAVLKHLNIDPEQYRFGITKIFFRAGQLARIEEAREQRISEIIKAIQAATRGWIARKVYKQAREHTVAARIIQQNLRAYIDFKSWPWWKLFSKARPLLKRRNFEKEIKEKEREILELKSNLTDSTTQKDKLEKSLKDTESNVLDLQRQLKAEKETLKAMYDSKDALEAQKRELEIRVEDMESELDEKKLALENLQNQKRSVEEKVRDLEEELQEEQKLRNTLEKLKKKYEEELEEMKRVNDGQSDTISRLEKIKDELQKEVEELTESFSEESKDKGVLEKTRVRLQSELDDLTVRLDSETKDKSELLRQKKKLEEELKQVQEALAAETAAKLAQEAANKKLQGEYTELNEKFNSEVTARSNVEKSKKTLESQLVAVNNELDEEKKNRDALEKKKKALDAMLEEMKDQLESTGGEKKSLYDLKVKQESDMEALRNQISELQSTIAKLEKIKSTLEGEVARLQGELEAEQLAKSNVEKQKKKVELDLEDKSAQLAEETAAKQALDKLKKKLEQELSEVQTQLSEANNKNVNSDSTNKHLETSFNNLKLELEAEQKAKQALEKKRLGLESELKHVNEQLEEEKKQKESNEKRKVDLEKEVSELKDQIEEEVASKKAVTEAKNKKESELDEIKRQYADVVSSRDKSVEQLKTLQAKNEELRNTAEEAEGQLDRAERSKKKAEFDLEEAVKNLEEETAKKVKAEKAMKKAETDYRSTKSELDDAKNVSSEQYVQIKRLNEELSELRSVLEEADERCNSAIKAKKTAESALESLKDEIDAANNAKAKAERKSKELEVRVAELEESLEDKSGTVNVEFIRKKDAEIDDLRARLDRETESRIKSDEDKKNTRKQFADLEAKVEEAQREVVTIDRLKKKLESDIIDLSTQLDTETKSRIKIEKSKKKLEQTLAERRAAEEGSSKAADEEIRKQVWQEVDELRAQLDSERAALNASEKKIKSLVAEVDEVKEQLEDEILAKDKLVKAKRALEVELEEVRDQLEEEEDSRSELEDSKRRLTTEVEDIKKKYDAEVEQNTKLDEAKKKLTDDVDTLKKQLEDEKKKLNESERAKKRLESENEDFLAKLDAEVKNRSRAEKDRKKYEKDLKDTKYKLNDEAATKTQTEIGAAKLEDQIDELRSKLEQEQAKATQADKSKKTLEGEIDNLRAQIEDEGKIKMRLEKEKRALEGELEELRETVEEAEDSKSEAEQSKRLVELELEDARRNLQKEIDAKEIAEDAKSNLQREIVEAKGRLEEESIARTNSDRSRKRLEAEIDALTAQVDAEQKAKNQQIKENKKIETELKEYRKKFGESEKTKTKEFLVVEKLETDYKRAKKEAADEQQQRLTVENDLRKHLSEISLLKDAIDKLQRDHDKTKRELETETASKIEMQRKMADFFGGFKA
Experiment: actomyosin steady state ATPase measurement, Dictyostelium myosin
Assay type: biochemical
Conditions: read-out: % inhibition at 50 μM (or 100 μM if racemate) Dicty
Please go through the items and note down their inhibition at 50 µM.
Answers are plain numbers, in %.

Reference set (4 entries):
compound	inhibition at 50 µM, %
O=C1c2ccncc2N=C2N(c3ccccc3)CCC12O (centres unmarked)	17
Cc1cc2c(s1)N=C1N(c3ccc(C#N)cc3)CCC1(O)C2=O (centres unmarked)	86
Cc1cc2c(s1)N=C1NCCC1(O)C2=O (centres unmarked)	0
O=C1c2ccsc2N=C2N(c3ccccc3)CCC12O (centres unmarked)	67

Note: attention shifts to another entry.
Specify inhibition at 50 µM for Cc1ccc(N2CCC3(O)C(=O)c4ccncc4N=C23)cc1 (centres unmarked) and stop.
22

====

Target: isolated smooth muscle myosin (UniProt P10587)
Assay type: biochemical, chamois
Conditions: concentration required for semi-maximal inhibition of ATPase
In this scheme, each record receives a class according to its IC50; the ranges are bottom end = under 2 µM, midrange = from 2 µM up to 8 µM, top end = 8 µM and over

Below are worked cases with known answers.
molecule	group
Cc1cc2c(s1)N=C1N(c3ccc(N4CCOCC4)cc3)CCC1(O)C2=O (centres unmarked)	midrange
Cc1nsc2c1C(=O)C1(O)CCN(c3ccccc3)C1=N2 (centres unmarked)	top end
COc1ccc(N2CCC3(O)C(=O)c4cc(C)sc4N=C23)cc1 (centres unmarked)	bottom end

Band assignment needed for O=C1c2sccc2N=C2N(c3ccccc3)CCC12O (centres unmarked) please.
top end

Band assignment needed for Cc1cc2c(s1)N=C1N(c3ccccc3)CCC1(O)C2=O (centres unmarked) please.
midrange

Band assignment needed for "O=C1c2ccsc2N=C2N(c3ccc(OC(F)(F)F)cc3)CC[C@@]12O" please.
top end

Band assignment needed for "Nc1ccc(N2CC[C@@]3(O)C(=O)c4ccsc4N=C23)cc1" please.
top end

Band assignment needed for "N#Cc1ccc(N2CC[C@@]3(O)C(=O)c4ccsc4N=C23)cc1" please.
top end

Band assignment needed for "COc1ccc(N2CC[C@@]3(O)C(=O)c4ccsc4N=C23)cc1" please.
midrange

Band assignment needed for Cc1cc2c(s1)N=C1NCCC1(O)C2=O (centres unmarked) please.
bottom end

Band assignment needed for O=C1c2cccnc2N=C2N(c3ccccc3)CCC12O (centres unmarked) please.
bottom end

====

Test: tissue concentrations after intraperitoneal injection into a live rat
Type: in vivo
Conditions: ip, 6 mg i.p., 30 min, skeletal muscle, read-out: Concentration of compound 188 in tissue samples (μM) muscle
observed_property: concentration at 30 min (µM)
Answers are plain numbers, in µM.

Specify concentration at 30 min for O=C1c2ccsc2N=C2N(c3ccc(N4CCOCC4)cc3)CCC12O (stereo not shown) and stop.
69

====

Target: isolated smooth muscle myosin (UniProt P10587)
Type: biochemical, chamois
Conditions: 5 μM (10 μM if racemate); ATPase activity
Classification field: 1 = % inhibition at 5 μM (or 10 μM if racemate) Smooth at or over 60%; -1 = % inhibition at 5 μM (or 10 μM if racemate) Smooth under 60%.

Identify whether the reported % inhibition at 5 μM (or 10 μM if racemate) Smooth of the following molecule is 60% or greater: O=C1c2ccsc2N=C2N(c3ccccc3)CCC12O (stereo not drawn) [Compound 180]
-1

Identify whether the reported % inhibition at 5 μM (or 10 μM if racemate) Smooth of the following molecule is 60% or greater: CC(=O)c1ccc(N2CCC3(O)C(=O)c4cc(C)sc4N=C23)cc1 (stereo not drawn) [Compound 225]
1

Identify whether the reported % inhibition at 5 μM (or 10 μM if racemate) Smooth of the following molecule is 60% or greater: O=C1c2ccncc2N=C2N(c3ccc(N4CCOCC4)cc3)CCC12O (stereo not drawn) [Compound 248]
-1

Identify whether the reported % inhibition at 5 μM (or 10 μM if racemate) Smooth of the following molecule is 60% or greater: Nc1ccc(N2CC[C@@]3(O)C(=O)c4ccsc4N=C23)cc1 [Compound 210]
-1

Identify whether the reported % inhibition at 5 μM (or 10 μM if racemate) Smooth of the following molecule is 60% or greater: CN(C)c1ccc(N2CC[C@@]3(O)C(=O)c4ccsc4N=C23)cc1 [Compound 249]
-1

Identify whether the reported % inhibition at 5 μM (or 10 μM if racemate) Smooth of the following molecule is 60% or greater: COc1ccc(N2CCC3(O)C(=O)c4cc(C)sc4N=C23)cn1 (stereo not drawn) [Compound 230]
-1

Identify whether the reported % inhibition at 5 μM (or 10 μM if racemate) Smooth of the following molecule is 60% or greater: COc1ccc(N2CCC3(O)C(=O)c4cc(C)sc4N=C23)cc1 (stereo not drawn) [Compound 222]
1

Identify whether the reported % inhibition at 5 μM (or 10 μM if racemate) Smooth of the following molecule is 60% or greater: CN(C)c1ccc(N2CCC3(O)C(=O)c4ccncc4N=C23)cc1 (stereo not drawn) [Compound 251]
-1

Identify whether the reported % inhibition at 5 μM (or 10 μM if racemate) Smooth of the following molecule is 60% or greater: O=C1c2sccc2N=C2N(c3ccccc3)CCC12O (stereo not drawn) [Compound 183]
-1

====

Molecular target: isolated porcine cardiac ventricular myocardium (cardiac) (Sus scrofa, UniProt P79293)
Construct: isolated porcine cardiac ventricular myocardium (cardiac); from tissue; host or cells: porcine cardiac ventricle
Experiment: actomyosin steady state ATPase measurement, cardiac myosin
Type: biochemical
Conditions: read-out: % inhibition at 5 μM (or 10 μM if racemate) cardiac; 5 μM (10 μM if racemate); ATPase activity
observed_property: inhibition at 5 µM (%)
Numbers only, in %.

Reference set (10 entries):
compound	measure_unit	recorded_measurement
O=C1c2cccnc2N=C2N(c3ccccc3)CCC12O (stereo not shown)	%	11
O=C1c2ccsc2N=C2NCC[C@@]12O	%	4
O=C1c2ccncc2N=C2N(c3ccc(OC(F)(F)F)cc3)CCC12O (stereo not shown)	%	2
Cc1cc2c(s1)N=C1N(c3ccc(N)cc3)CCC1(O)C2=O (stereo not shown)	%	65
O=C1c2ccsc2N=C2N(c3ccc(OC(F)(F)F)cc3)CC[C@@]12O	%	43
O=C1c2ccsc2N=C2N(c3ccc(CO)cc3)CC[C@@]12O	%	58
O=C1c2sccc2N=C2N(c3ccccc3)CCC12O (stereo not shown)	%	33
CN(C)c1ccc(N2CCC3(O)C(=O)c4ccncc4N=C23)cc1 (stereo not shown)	%	6
Cc1cc2c(s1)N=C1NCCC1(O)C2=O (stereo not shown)	%	6
Cc1cc2c(s1)N=C1N(c3ccc(OC(F)(F)F)cc3)CCC1(O)C2=O (stereo not shown)	%	68

For every item below, please supply its inhibition at 5 µM.
1. Cc1ccc(N2CCC3(O)C(=O)c4ccncc4N=C23)cc1 (stereo not shown)
2. Cc1ccc(N2CC[C@@]3(O)C(=O)c4ccsc4N=C23)cc1

[9, 74]

For every item below, please supply its inhibition at 5 µM.
1. Cc1cc2c(s1)N=C1N(c3ccccc3)CCC1(O)C2=O (stereo not shown)
2. Cc1ccc(N2CCC3(O)C(=O)c4cc(C)sc4N=C23)cc1 (stereo not shown)

1. 64
2. 72

For every item below, please supply its inhibition at 5 µM.
1. CC(=O)c1ccc(N2CCC3(O)C(=O)c4cc(C)sc4N=C23)cc1 (stereo not shown)
2. COc1ccc(N2CC[C@@]3(O)C(=O)c4ccsc4N=C23)cc1
3. N#Cc1ccc(N2CC[C@@]3(O)C(=O)c4ccsc4N=C23)cc1

[68, 67, 61]

For every item below, please supply its inhibition at 5 µM.
1. COc1ccc(N2CCC3(O)C(=O)c4cc(C)sc4N=C23)cn1 (stereo not shown)
2. Nc1ccc(N2CC[C@@]3(O)C(=O)c4ccsc4N=C23)cc1

68
36
